From: patent US9206412B2

- Test system: dengue type 2 virus subgenomic replicon (BHK-pD2hRucPac)
- assay.name: Antiviral (replicon) assay, Renilla luciferase
- Assay type: cell-based
- conditions.used: read-out: Replicon EC50; 72 hours
experimental.readout: EC50

State, for dengue type 2 virus subgenomic replicon (BHK-pD2hRucPac), measured EC50 of the compound listed here: CC(C)(C)c1ccc(/C=C2/SC(=S)N(CCC(=O)O)C2=O)cc1
~30 µM

----------
- subject.of.test: UniProt:P03314
- assay.name: biochemical
- Assay type: binding, yellow fever virus (strain 17D)
- conditions.used: read-out: FP_YF_KI_AVG_YF_M
experimental.readout: pKi
Numbers only, as −log10 of the molar value.

Record excerpt, results attached:
>  <smiles>
O=C(O)CN1C(=O)C(=Cc2cccc(Cl)c2Cl)SC1=S

>  <pKi>
4.47

$$$$
>  <smiles>
O=C(CCN1C(=O)C(=Cc2ccc(Cl)cc2)SC1=S)Nc1ccccc1C(=O)O

>  <pKi>
5.70

$$$$
>  <smiles>
O=C1NC(=O)C(=Cc2cc3c(cc2[N+](=O)[O-])OCO3)S1

>  <pKi>
5.05

$$$$
>  <smiles>
CC(C)N1C(=O)SC(=Cc2ccccc2OCc2ccc(C(=O)O)cc2)C1=O

>  <pKi>
4.85

$$$$
>  <smiles>
O=C(O)CCN1C(=O)C(=Cc2ccc(Cl)c(Cl)c2)SC1=S

>  <pKi>
4.92

$$$$

Give me pKi for each of these compounds, listed below.
1. CCN(CC)c1ccc(N2C(=O)/C(=C/c3ccc(C(=O)O)cc3)SC2=S)cc1
2. O=C1NC(=O)C(=Cc2ccccc2[N+](=O)[O-])S1
3. COc1ccc2nc(N3CCCCC3)c(C=C3SC(=S)NC3=O)cc2c1

5.52
4.18
5.70

----------
- subject.of.test: yellow fever virus capping enzyme (Yellow fever virus)
- assay.name: biochemical
- Assay type: binding, yellow fever virus (strain 17D)
- conditions.used: read-out: FP_YF_KI_AVG_YF_M
Consider the following molecules; for each one, report its log10 Ki.
A value of 2 here means Ki of 100 in µM, since values are log10.

Record excerpt, results attached:
>  <smiles>
O=C(CN1C(=O)/C(=C/c2ccccc2F)SC1=S)Nc1cccc(C(=O)O)c1

>  <log10 Ki>
1.08

$$$$
>  <smiles>
O=C(O)CN1C(=O)/C(=C/c2ccc(F)c(Br)c2)SC1=S

>  <log10 Ki>
1.43

$$$$
>  <smiles>
CCOc1cc(/C=C2\SC(=S)NC2=O)ccc1OS(=O)(=O)c1ccccc1[N+](=O)[O-]

>  <log10 Ki>
0.30

$$$$
>  <smiles>
O=C(CN1C(=O)/C(=C/c2ccccc2F)SC1=S)Nc1ccccc1C(=O)O

>  <log10 Ki>
0.48

$$$$
>  <smiles>
Cc1ccc(N2C(=O)/C(=C/c3ccccc3C(=O)O)SC2=S)c(C)c1

>  <log10 Ki>
1.18

$$$$
>  <smiles>
COc1cc(C=C2SC(=S)NC2=O)ccc1OS(=O)(=O)c1ccccc1[N+](=O)[O-]

>  <log10 Ki>
0.30

$$$$
>  <smiles>
O=C1NC(=O)C(=Cc2ccc(Br)cc2)S1

>  <log10 Ki>
1.38

$$$$

Report measured log10 Ki; entry is COc1cc(/C=C2\SC(=O)N(Cc3ccc(F)cc3)C2=O)c(Br)cc1OCC(=O)O
0.95

----------
- subject.of.test: dengue virus capping enzyme (Dengue virus type 2, UniProt P29990)
- Sequence (P29990 2492-2758): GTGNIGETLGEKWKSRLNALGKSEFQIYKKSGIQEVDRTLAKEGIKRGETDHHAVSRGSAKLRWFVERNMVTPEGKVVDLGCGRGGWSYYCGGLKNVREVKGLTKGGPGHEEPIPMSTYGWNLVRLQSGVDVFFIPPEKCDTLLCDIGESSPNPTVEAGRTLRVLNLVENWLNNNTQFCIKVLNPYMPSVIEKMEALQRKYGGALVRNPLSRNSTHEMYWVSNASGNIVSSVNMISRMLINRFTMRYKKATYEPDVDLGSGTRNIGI
- assay.name: biochemical
- Assay type: binding, dengue virus type 2 (strain 16681)
- conditions.used: FP_DEN_Ki_AVG_DEN_M
Consider the following molecules; for each one, report its pKi.
Give bare numbers, as −log10 of the molar value.

Record excerpt, results attached:
>  <molecule>
O=C(O)CCN1C(=O)/C(=C/c2ccc(Cl)cc2Cl)SC1=S [BG-330]

>  <subject.of.test>
dengue virus capping enzyme (Dengue virus type 2, UniProt P29990)

>  <pKi>
5.00

$$$$
>  <molecule>
CC(C)(C)c1ccc(/C=C2/SC(=S)N(CCC(=O)O)C2=O)cc1 [BG-323]

>  <subject.of.test>
dengue virus capping enzyme (Dengue virus type 2, UniProt P29990)

>  <pKi>
5.12

$$$$

// next item, pKi requested
Report measured pKi; entry is O=C(O)CCN1C(=O)/C(=C/c2cccc(Cl)c2Cl)SC1=S [BG-324]
5.00

----------
Consider the following molecules; for each one, report its Ki.
- subject.of.test: dengue virus capping enzyme (Dengue virus type 2, UniProt P29990)
- Sequence (P29990 2492-2758): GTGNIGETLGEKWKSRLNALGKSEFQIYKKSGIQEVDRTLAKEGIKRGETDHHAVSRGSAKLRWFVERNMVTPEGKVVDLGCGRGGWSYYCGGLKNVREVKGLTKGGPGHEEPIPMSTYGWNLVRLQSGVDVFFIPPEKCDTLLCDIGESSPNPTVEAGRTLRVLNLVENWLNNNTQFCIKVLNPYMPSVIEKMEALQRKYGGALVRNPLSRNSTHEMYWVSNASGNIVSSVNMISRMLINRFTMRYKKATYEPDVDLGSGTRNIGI
- assay.name: biochemical
- Type: binding, dengue virus type 2 (strain 16681)
- conditions.used: Ki (GTP displacement)
Numbers only, in µM.

Record excerpt, results attached:
>  <smiles>
O=C(O)CCN1C(=O)/C(=C/c2cccc(Cl)c2Cl)SC1=S

>  <unit.text>
µM

>  <Ki>
9.9

$$$$
>  <smiles>
O=C(O)CCN1C(=O)/C(=C/c2ccc(Cl)cc2Cl)SC1=S

>  <unit.text>
µM

>  <Ki>
9.8

$$$$

Give me Ki for each of these molecules, listed below.
1. CC(C)c1ccc(/C=C2\SC(=S)N(CCC(=O)O)C2=O)cc1
2. O=C(O)CN1C(=O)/C(=C/c2ccc(Cl)cc2Cl)SC1=S

1: 12; 2: 24

Report measured Ki; entry is O=C(O)CN1C(=O)/C(=C/c2cccc(Cl)c2Cl)SC1=S
27

----------
- subject.of.test: yellow fever virus capping enzyme (Yellow fever virus, UniProt P03314)
- Sequence (P03314 2507-2774 limits assumed): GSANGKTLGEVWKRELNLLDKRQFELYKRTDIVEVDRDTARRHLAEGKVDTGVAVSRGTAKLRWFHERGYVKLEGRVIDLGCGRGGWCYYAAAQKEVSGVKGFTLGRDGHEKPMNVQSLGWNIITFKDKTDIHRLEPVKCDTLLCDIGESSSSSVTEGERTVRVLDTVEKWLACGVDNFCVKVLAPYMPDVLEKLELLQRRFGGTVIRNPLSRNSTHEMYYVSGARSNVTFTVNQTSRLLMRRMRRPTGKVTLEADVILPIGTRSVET
- assay.name: biochemical
- Type: binding, yellow fever virus (strain 17D)
- conditions.used: read-out: FP_YF_KI_AVG_YF_M
pKi: −log10 of the molar value.
Quick rule for you: pKi at 5 or higher means label 1, lower means label 0.

>  <compound>
O=C(CN1C(=O)C(=Cc2ccccc2Cl)SC1=S)Nc1cccc(C(=O)O)c1

>  <qualitative.label>
label 1

$$$$
>  <compound>
CC(=C1SC(=S)NC1=O)c1ccc(C)cc1

>  <qualitative.label>
label 0

$$$$
>  <compound>
O=C(CN1C(=O)S/C(=C\c2ccccc2F)C1=O)Nc1ccccc1C(=O)O

>  <qualitative.label>
label 0

$$$$

Is it the case that O=C(O)CCN1C(=O)C(=Cc2ccc(-c3ccccc3[N+](=O)[O-])o2)SC1=S has pKi reaching or exceeding 5?
label 1

Is it the case that O=C(CN1C(=O)C(=Cc2ccccc2Cl)SC1=S)Nc1ccc(C(=O)O)cc1 has pKi reaching or exceeding 5?
label 1

Is it the case that O=C(O)CCCN1C(=O)/C(=C/c2ccc(Cl)cc2Cl)SC1=S has pKi reaching or exceeding 5?
label 0

Is it the case that CC(C(=O)O)N1C(=O)C(=Cc2ccc(Cl)cc2Cl)SC1=S (centres unmarked) has pKi reaching or exceeding 5?
label 0

Is it the case that O=C(O)CN1C(=O)C(=Cc2cc(Br)ccc2F)SC1=S has pKi reaching or exceeding 5?
label 0

Is it the case that COc1ccc(OC)c(/C=C2\SC(=S)N(CC(=O)O)C2=O)c1 has pKi reaching or exceeding 5?
label 0

Is it the case that O=C(CCN1C(=O)C(=Cc2ccc(Cl)cc2)SC1=S)Nc1ccc(C(=O)O)cc1 has pKi reaching or exceeding 5?
label 1

Is it the case that O=C(O)CCN1C(=O)/C(=C/c2ccccc2F)SC1=S has pKi reaching or exceeding 5?
label 0

Is it the case that O=C(CN1C(=O)/C(=C/c2ccccc2Cl)SC1=S)Nc1ccccc1C(=O)O has pKi reaching or exceeding 5?
label 1

Is it the case that COc1ccc(N2C(=O)/C(=C/c3cc([N+](=O)[O-])cc(OC)c3O)SC2=S)cc1 has pKi reaching or exceeding 5?
label 1

Is it the case that CCc1ccc(C=C2SC(=O)NC2=O)cc1 has pKi reaching or exceeding 5?
label 0

Is it the case that O=C1C(=Cc2cccc(Br)c2)SC(=S)N1CN1CCCCC1 has pKi reaching or exceeding 5?
label 0

Is it the case that COc1ccccc1C=C1SC(=S)N(CCC(=O)O)C1=O has pKi reaching or exceeding 5?
label 0

Is it the case that O=C1NC(=S)SC1=Cc1ccccc1OS(=O)(=O)c1ccc([N+](=O)[O-])cc1 has pKi reaching or exceeding 5?
label 1

Is it the case that Cc1cc(C)cc(-n2c(C)cc(/C=C3\SC(=O)NC3=O)c2C)c1 has pKi reaching or exceeding 5?
label 0

Is it the case that CCOc1ccc(N2C(=O)C(=Cc3ccccc3C(=O)O)SC2=S)cc1 has pKi reaching or exceeding 5?
label 0
